Values from patent US20230355720A1

Here, each record is paired with measured In vitro activity (%) compared with native peptide, vs Glucagon data.
Target: human GCG receptor (human, UniProt P47871 26-477)
Sequence (P47871 26-477): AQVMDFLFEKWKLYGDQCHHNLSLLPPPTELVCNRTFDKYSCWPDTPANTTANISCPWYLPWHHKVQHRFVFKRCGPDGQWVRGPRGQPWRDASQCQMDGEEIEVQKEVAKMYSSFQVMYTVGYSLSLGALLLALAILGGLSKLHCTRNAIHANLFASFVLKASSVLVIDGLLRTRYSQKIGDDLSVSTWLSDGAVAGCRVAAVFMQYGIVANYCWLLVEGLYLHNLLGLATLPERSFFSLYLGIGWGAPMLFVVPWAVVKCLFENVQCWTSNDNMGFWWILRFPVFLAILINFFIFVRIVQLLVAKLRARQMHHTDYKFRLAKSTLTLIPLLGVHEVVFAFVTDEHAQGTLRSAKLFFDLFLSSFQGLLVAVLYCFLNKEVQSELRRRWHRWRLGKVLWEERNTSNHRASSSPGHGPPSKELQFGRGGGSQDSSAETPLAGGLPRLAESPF
Test: cell-based or functional assay

Example binders with recorded In vitro activity (%) compared with native peptide, vs Glucagon:
In [3]: df
Out[3]:
                                     binder  assayresult
0  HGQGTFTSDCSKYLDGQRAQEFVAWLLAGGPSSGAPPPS [triple agonist of SEQ ID NO: 47]       < 0.1%
1  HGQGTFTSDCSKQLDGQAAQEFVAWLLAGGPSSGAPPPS [triple agonist of SEQ ID NO: 44]       < 0.1%

Now look at this one.
stdin: Answer with the recorded In vitro activity (%) compared with native peptide, vs Glucagon for the binder listed here: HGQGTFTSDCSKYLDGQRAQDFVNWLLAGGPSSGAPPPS [triple agonist of SEQ ID NO: 48]
stdout: < 0.1%
